Measured pIC50 by item
# Test system: Aorta
# assay.method.text: Vasorelaxant activity against KCl-induced contraction in Wistar rat aorta
# Format: functional, tissue-based
Keep in mind that pIC50 stands for -log10 of concentration in molar terms.

Examples from the recorded data:
# compound, pIC50
measured = [
    ("C=C1[C@H]2CC[C@@]34C(=O)C5[C@H](C[C@H]3[C@]2(C)CC[C@@H]1Cl)[C@]5(C)C4=O", 5.01),
    ("CC1(C)CCC[C@]2(C)[C@@H]1CC[C@@]13C(=O)C4[C@H](C[C@H]12)[C@]4(C)C3=O", 5.24),
    ("C[C@@]12CCC(=O)[C@](C)(CO)[C@H]1CC[C@@]13CC4[C@H](C[C@H]12)[C@]4(C)C3", 5.20),
]

Query: // Input: C[C@@H]1C[C@@H](O)[C@H]2[C@@](C)(CO)CCC[C@]2(C)[C@@]1(O)CCc1ccoc1 [MARRUBENOL] . Output its pIC50 only.
Reply: 5.00
